- testName: protease stability score; higher = more stable; yeast display proteolysis, trypsin and chymotrypsin;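 also: log10 excess protease needed over predicted unfolded state with 0 meaning unfolded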
readoutKind: protease stability score
Give your answer as a number; write no unit.

- DEKQADRAEKFMRALNEGNEDQATRLFDPNAHVVYGDTEVHGRERIRETIRNLQREMSVRYEVHRIEDRNGHVNLHADVTLQHNGRPARYVLTINVRADNGTIVSLNMRVPEEEKEKMKG: 0.15
- DEENMHKLQEIIRTNDETKFNEMMDPNVEIEVGNKTYHGREEAIKFQRRVNQHVDKIQVDYVEVQGDSLRADYVVQVNGQNVRVDLEIRVEDGRAKEIRLNFRNEEEHKMYEKWLS: 1.34

Answer with the recorded protease stability score for the sequence listed here: DEEKRREFAKFAMNVVQTGDPREFSKMADPNAKFDIGDKVFHGREKAVKHWEEYSQRVDHIQIQDVKFQGNEIHILAQDRHNGRDRSVVWVVTVHNGRAKYVSVDDN 0.027

Answer with the recorded protease stability score for the sequence listed here: DEDQHRRWQELMKAIETGDPERIKELMDPNAEFVVGDKHVRGREKYAREVHRELRTMRVEFRILSLRVQGDRLLADVEVVTHDDGKPTSHRFKLEVKAENGTIRVFRNQSVP 0.155

Answer with the recorded protease stability score for the sequence listed here: DDKDAKRLLTLWHQIEEGNPEEVQKMMDENVHVSIGDKEVHGREEDARQRKEEVDSMRVSLKIDHYSDNNGRIVVDATQENETNGKPSTKRFVIEARMDNGTLKRLQIEDDK 0.097

Answer with the recorded protease stability score for the sequence listed here: DDHAVRMAKTYQKAIQHNDPDKMVDLVDPNAKIHIGDKDIQGREELRRWVKHRIDDINIIIERVSATDKGDKAIVTVDLVENENGRPHNVRFEVTFDFKNGRAQRVTVQESR -0.088

* * *

- testName: protease stability score; higher = more stable; yeast display proteolysis, trypsin and chymotrypsin;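 also: log10 excess protease needed over predicted unfolded state with 0 meaning unfolded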
readoutKind: protease stability score

Answer with the recorded protease stability score for the sequence listed here: DEKKLEELLRKLFEAAQKNNVDEMRKFLAPDVQYKYGDKRYEGEKVADTAVKVMREVGAEVRVKEEEVKGGEAEATFQYHKGDKTVETTARVRYEGDKVKEVEVKLSEEVKKILEQG 0.128

Answer with the recorded protease stability score for the sequence listed here: DEEVLQEYREAFEEGDEERIQNLADENVKVTYGDKDYHGRHDMRKFMKWLKRAADRIEIKRYTQTGDKLRIVVVMHVNGQTIKFSVVVRVHNGNVKSVRMDATSEEDRKHFERVVD 0.755

Answer with the recorded protease stability score for the sequence listed here: EEKQKTHVERFIEILREGDPQKAREMADKDAKFVYGDKSVHGMDEFRRQVERRNKQIHIDLKVREVDVHGNNVKIIIDAQEDHNGNPDSFKADMEVVYHNGRIKSASMDKQT 0.074

* * *

- testName: protease stability score; higher = more stable; yeast display proteolysis, trypsin and chymotrypsin;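 also: log10 excess protease needed over predicted unfolded state with 0 meaning unfolded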
readoutKind: protease stability score
Give your answer as a number; write no unit.

Here's what some known entries look like.
• DEEKDEDVARQVAHAAATGDTKRLVELMRDNVRFQIGDKTFSGRENLSKAMERIDKHVDHLEVKSIEAHGDTVRADVTMTVNGKTHVVKIEAVVHNGHARELVLHDR = 0.06
• DENETAKDILKELVDILKNGDEDSFARMFDENARITVGDKTYTGRDEVRKYASQIHRRVDHIDVKLKSVTTNNGRIEVSARFVFQVDGKEDDRIFRLVVRKKGDKWVIERQSLE = 1.64
• DEENVRLARHYADAEARGDHDTIVELLDPNAKVDVGDHEVTGDEHVREELKKKHNQWRAELKDVKASVRGDKLRLKITFVVHINGRPSEQTIDARADIKDGRFKSFSVTIDPQEERHNES = 0.395
• DNEVAHNIMRAFKQQWRGNEDKALELMDPNAEVHVGNKQIHGMEEWVRRTAHKARRARVKVSRIDVTVHNGKVRIKMNYTVSVNGKPISWHADITVQADNGRAKHITQQVPEDLEERERG = 0.112

Next up:
Answer with the recorded protease stability score for the sequence listed here: DESKVNEIVQKFVNAVREGNENHLRSLMDKDVTLHVGDRTWHGREQVASFMAHVAKRVDRIRIVHIEIHGDKANVNVRFDVNGTEVQLTMDIRIKNGRIMKIHMSPEDEKKLQG 1.76

* * *

- testName: protease stability score; higher = more stable; yeast display proteolysis, trypsin and chymotrypsin;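 also: log10 excess protease needed over predicted unfolded state with 0 meaning unfolded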
Rule: protease stability score under 0.04 gives label 0, otherwise label 1.

Check the entry DETARDRLEELWRTMERNDPDKLTRQADKDVEVHVGDKELHGMKQVATTLAHEMREMDVEIEIREVNVQGNNVEVDMIFRAKVNGKPIHNKASFVVTFNNGKAESIELRVPPEFQKQKRK : does protease stability score equal or exceed 0.04? label 0

Check the entry DEDEVRKIAEDVLRIIETGNPDDAMEQADENAEVIVGDKTYSGRTELRKVIHHMREKVDHMQVKSYDAHGNKATAVFILDNNGRKDEHVVYFDFHNGRLKKVNIQKK : does protease stability score equal or exceed 0.04? label 1

Check the entry DEELQKLVDDLLQALRSNNPEQFENNFDPNAKIRYGEKDVHGRTRFVKELQRERDDARFRIETYRVDNQGDKASLKMVFQRDHNGQPQRHTARAEIVVKNGKVQTAVFNFDS : does protease stability score equal or exceed 0.04? label 0

Check the entry DEDKMKEVIEKVLRMLETGDPHEASKLADENAKIRYGDKTYHGRDQVHELLDRITKRVDHVEIKDFSVQGEQLVLHFVLNINGKNKEVVLVATVHNGRIKSLHVDDQ : does protease stability score equal or exceed 0.04? label 1

Check the entry DDKDRRRVAEEVVRAFVQNDPDRLVELADEDARVHYGDRELHGREKARHMLRKFKEQVDTATYQDFNVHGDKVDIKLTAHFNGRTHTQTVIVVIHNGRIKFIEIRSS : does protease stability score equal or exceed 0.04? label 1

Check the entry DEEEQEKQAHDFARVFNTGDEEKFKRLMPPDARFRYGDKEYHGMDDLLRMLLEMHKRADHLTLVDVDAHGNHLTIRIKVTVNGSDVTVDITITVDNGRLKSVVVDPRQWQKLRN : does protease stability score equal or exceed 0.04? label 1

Check the entry DEHHRKEFEDMLRVEQHGNEEQLKRYMDPNARFRYGDKKVHGREEVVRQISKRRHKLRMQYDTWDIKVKGDKITADLKYVEHQNGQPEDVRVNVSIRFHNGKLVEAHRERDK : does protease stability score equal or exceed 0.04? label 0

Check the entry KEEDIVKVAKKLAKIVEEGNPDELKKLLSPDLEVKYGDKERHGADELVKVLKKLLRKGVRIQVKELQVEGNTATTVLEYQHGDKKHDVEIKAKLTGGRLKKLEVRFSPKAQEIVTQG : does protease stability score equal or exceed 0.04? label 1

Check the entry DREVLKEFLKQFHEGNFHEVARMADPNAEVEVGDKTVEGREHLITLHKHIHDKADHASIHRVEIHNGRINVELTVNFNGTNVVYRFTLEAENGKLKNINYRARDSDQKRILKRLWG : does protease stability score equal or exceed 0.04? label 1

Check the entry DDEKVKSFMKNVVRAWKHNNPDEMAKLADPNARAHVGDKEVHGRHQVKTMITEQLTRVDHVDIRHVHANGDKITIHATLNVNGRTRSVKIEIRFDNGKITDIRMDPDAVKEIKK : does protease stability score equal or exceed 0.04? label 1

Check the entry DEEDEREVAKQAVDDLVKGNPDRASELADPNVHVEIGDKTYRGQTQMASALKDFRKNVDSVQIDDLKLHGNKADVDMRVDHNGQQQKYHVIVIVHNGRVSELKIKEK : does protease stability score equal or exceed 0.04? label 1

Check the entry DEELNHQVHSFIKNVRQGNPKEAVKQADPNVRVQVGNKVINGRENMEKWYREMKREMRIVIKVDRIRAHNGRAEATYKVEYDVNGKPYTNTNSMHVEAHNGRIVSIYEDFDETHLREVQS : does protease stability score equal or exceed 0.04? label 0

Check the entry DEDKEQELAHHIISIIQTGNPDSFMNMADPNAKVNIGDTRLRGREQIVHFYREQFRQADNREVKDVRAHNGRITIDAVRNINGRNERYVVDIQIENGKATEINVRHT : does protease stability score equal or exceed 0.04? label 1

Check the entry DKSMQEEMERVARENDFHRLAELADPNVKWQYGDKHLHGRTAQREFVRLNHEAVDHLEVQDVKFHGENVEIDLVMTVNGKEIKVVLQAHVHNGRIKEMRWQVTNEDEKRKLEEAVS : does protease stability score equal or exceed 0.04? label 0

Check the entry DEEATKELREWLHNRTKNNEEELHKYADPNAKFVIGDKTYHGMEEAVESQVHKDKHMNIHIESIHMDADGEHVRASEVVTFEVNGKPFRYSFRYNVTMSNGRLKSQSVRVDERDEEQEKQ : does protease stability score equal or exceed 0.04? label 0

* * *

- testName: protease stability score; higher = more stable; yeast display proteolysis, trypsin and chymotrypsin;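 also: log10 excess protease needed over predicted unfolded state with 0 meaning unfolded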
readoutKind: protease stability score
Give your answer as a number; write no unit.

• EESVIKRIHQLMESNDWDQLVRQMDEDAKVEIGNFRVEGREEAEDWARKVKKQVDHLEVEDIQIRGNKVEVTMNVQVNGKTVRFDLVMEVRNGRVTSMSARFRSEDDVKIMEEMLK = 1.15
• DEHELREILDKANEAWKRNDPDEMVKQADKDVEVKIGDKDFHGREEAHEAMKELHDRADHISIRDYDASGNKARIHMYIVVNGRRVDFVVIIVVRNGRIQKIELNVRDEKAKSNLKQ = 1.09
• DEEAIKQAKKLLDALRTGDEETLKEMIDPNARIHVGDKEVHGREEAAEQWQRRQEEQSMDWKVKSVENTNGRAEFRATATRRHNGQPDHFDFTWRVQAHNGRVKHMQVETRG = -0.262
• DERMKKLAEQIVKARRTGDEKQQKELFDEDAHVQIGDKTVHGKENQIETMKKRRDEIRVEIRINSLSVNNGKADISLEQTDDKNGTPKTDVVRATVHATNGRVKEVRYKHDG = -0.156
• DEEEAQKFRKHAKSNDQDNMRRMMDEDVRVIVGDFEVQGREDAEENLLRLNQRVDHISVKSIDVQGEHVTVDVEMTIDGTKFVVVYVVQFHNGRIKQLDLRARDEKDEKAFRRAVG = 0.234

Next up:
Answer with the recorded protease stability score for the sequence listed here: DEKEKAKKMFEKWHDVWRTNDPKKMNELADKDARINVGEKNYHGREHVEKIWRDLMERIDHVQLRVQTITSTGDKVEIRATVVIDHNGKQDEDTYVYVFQIDNGTVSFVQVRQS 0.576

// provenance: the NTF2 design screens of Basanta et al. (2020)
